# Test system: T-47D breast
# Test: NCI-60 one-dose screen, 48 h
# Study conditions: 10 µM unless noted
# Description: Growth inhibition of the T-47D human tumor cell line is measured as a screen for anti-cancer activity. Cells are grown in 96 well plates and exposed to the test compound for 48 hours. Compounds are tested at a single concentration, which is 10^-5 M for most compounds. The reported endpoint is percent growth (GI% or GIPRCNT), where numbers from 0 - 100% represent growth inhibition, and numbers from -100% - 0 represent cell death. For example, a value of 40 represents 60% growth inhibition. […]
Compounds without any hit were thinned out: in the full panel of roughly 83,000, 20% have a hit. Calls of active or inactive are those of the source. How the source made its calls: active means growth percent below 10; inactive means the rest.
Please answer using one outcome listed in active, inactive

Worked cases, answers included:
Incoming: Which outcome was entered for the compound `O=C(Nc1nc2ccc(OC(F)(F)F)cc2s1)c1ccc(F)cc1` in this test?
Outgoing: active

Incoming: Which outcome was entered for the compound `O=C1/C(=C\c2coc3ccccc3c2=O)c2ccccc2N1c1c(Cl)cccc1Cl` in this test?
Outgoing: inactive

Incoming: Which outcome was entered for the compound `CCCc1n(Cc2ccc3ccccc3c2)cc[n+]1Cc1ccc2ccccc2c1` in this test?
Outgoing: active

Incoming: Which outcome was entered for the compound COc1cc(C2CC(c3ccc(C)cc3)=NN2C=O)ccc1OCCN(C)C (stereo unspecified) in this test?
Outgoing: inactive

Incoming: Which outcome was entered for the compound `O=C(CSc1ncc(-c2ccccc2)n1-c1ccccc1)Nc1ccc(-c2nc3ccccc3s2)cc1` in this test?
Outgoing: inactive

New cases:
Incoming: Which outcome was entered for the compound `CNNc1ncnc2c1cnn2-c1ccc(S(N)(=O)=O)cc1` in this test?
Outgoing: inactive

Incoming: Which outcome was entered for the compound `CCOC(CNCc1cc(C)c2[nH]c3ccccc3c2c1C)OCC` in this test?
Outgoing: inactive

Incoming: Which outcome was entered for the compound `CN1CCN(CCCOc2ccc3ncnc(Nc4ccc(OCc5cccc(F)c5)c(Cl)c4)c3c2)CC1` in this test?
Outgoing: active

Incoming: Which outcome was entered for the compound `N#CC(C#N)C(C#N)C#N` in this test?
Outgoing: inactive

Incoming: Which outcome was entered for the compound `O=C(O)c1ccc2cccnc2c1O` in this test?
Outgoing: inactive

Incoming: Which outcome was entered for the compound CC1Cc2ccccc2N1C(=O)c1ccc(C(=O)c2ccccc2)cc1 (stereo unspecified) in this test?
Outgoing: inactive
